assay details: Counterscreen for RECQ1 Inhibitors: ADP Fluorescence Polarization Displacement Assay; further: nearly all actives have a fitted effect of over 45% in size
condition label: series mostly up to 228 µM
This is one part of the list. Records with an inconclusive call do not appear. Calls of active or inactive are those of the source. The call rests on the fitted dose curve; in most records, active means well fitted inhibition curve with a large enough effect; inconclusive means small, poorly fitted or top-dose-only effect; inactive means no such curve, though single readings can be large or run the other way.
observed property: outcome

Some molecules with recorded outcome:
molecule	outcome
O=C(OCC1O[C@@H](OC(=O)c2cc(O)c(O)c(O)c2)[C@@H](OC(=O)c2cc(O)c(O)c(O)c2)[C@@H](OC(=O)c2cc(O)c(O)c(O)c2)[C@@H]1OC(=O)c1cc(O)c(O)c(O)c1)c1cc(O)c(O)c(O)c1 (stereo partly specified)	inactive
COc1cc(C2C(C(=O)c3ccc(C)o3)=C(O)C(=O)N2CCc2ccccc2)ccc1O (stereo unspecified)	inactive
O=C(NC(Cc1c[nH]c2ccccc12)C(=O)O)/C(=C/c1ccco1)NC(=O)c1ccccc1 (stereo unspecified)	inactive
CC(C)C1N=C2c3ccccc3N=C(SCC(=O)c3ccc(O)c(O)c3)N2C1=O (stereo unspecified)	inactive
O=C(CCn1nnc2ccccc2c1=O)N[C@@H](Cc1c[nH]c2ccccc12)C(=O)O	inactive

Now consider the entry below.
Problem: Report outcome for CC(=O)Nc1ccc(Nc2c3ccccc3nc3ccccc23)cc1 please.
Solution: inactive
